The reported numbers originate from paper PMC6141180.

Target: p38α (MAPK14), nonphosphorylated (mouse, UniProt P47811 1-360)
Sequence (P47811 whole entry): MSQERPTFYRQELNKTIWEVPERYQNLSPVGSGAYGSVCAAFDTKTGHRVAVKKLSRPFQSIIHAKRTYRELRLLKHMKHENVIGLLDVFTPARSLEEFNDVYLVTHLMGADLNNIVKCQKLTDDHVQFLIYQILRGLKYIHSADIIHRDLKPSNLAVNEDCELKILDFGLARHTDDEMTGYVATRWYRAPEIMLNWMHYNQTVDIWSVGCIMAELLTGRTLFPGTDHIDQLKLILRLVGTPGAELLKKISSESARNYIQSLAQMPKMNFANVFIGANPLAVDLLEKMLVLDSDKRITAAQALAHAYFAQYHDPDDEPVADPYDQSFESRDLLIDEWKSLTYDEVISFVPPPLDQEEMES
Test: FP; displacement of fluorescein-labeled MKK3b peptide
In this section, each of the binders is paired with its reported IC50.

binder	units.text	IC50
Ac-RVYPVSVPYSSAQSTSKTSVTLSLVMPSQ-NH2 [TAB1 (residues 384–412) peptide]	µM	11
Ac-GKSKRKKDLRISCMSKP-NH2 [MKK3b peptide, unlabeled]	µM	15
